List of cGMP conc [nM] at 1 µM FabCys, without ANP values.
system-under-test: T1, human NPR1 on CHO-K1 cells (human, UniProt P16066 33-1061)
T1 sequence: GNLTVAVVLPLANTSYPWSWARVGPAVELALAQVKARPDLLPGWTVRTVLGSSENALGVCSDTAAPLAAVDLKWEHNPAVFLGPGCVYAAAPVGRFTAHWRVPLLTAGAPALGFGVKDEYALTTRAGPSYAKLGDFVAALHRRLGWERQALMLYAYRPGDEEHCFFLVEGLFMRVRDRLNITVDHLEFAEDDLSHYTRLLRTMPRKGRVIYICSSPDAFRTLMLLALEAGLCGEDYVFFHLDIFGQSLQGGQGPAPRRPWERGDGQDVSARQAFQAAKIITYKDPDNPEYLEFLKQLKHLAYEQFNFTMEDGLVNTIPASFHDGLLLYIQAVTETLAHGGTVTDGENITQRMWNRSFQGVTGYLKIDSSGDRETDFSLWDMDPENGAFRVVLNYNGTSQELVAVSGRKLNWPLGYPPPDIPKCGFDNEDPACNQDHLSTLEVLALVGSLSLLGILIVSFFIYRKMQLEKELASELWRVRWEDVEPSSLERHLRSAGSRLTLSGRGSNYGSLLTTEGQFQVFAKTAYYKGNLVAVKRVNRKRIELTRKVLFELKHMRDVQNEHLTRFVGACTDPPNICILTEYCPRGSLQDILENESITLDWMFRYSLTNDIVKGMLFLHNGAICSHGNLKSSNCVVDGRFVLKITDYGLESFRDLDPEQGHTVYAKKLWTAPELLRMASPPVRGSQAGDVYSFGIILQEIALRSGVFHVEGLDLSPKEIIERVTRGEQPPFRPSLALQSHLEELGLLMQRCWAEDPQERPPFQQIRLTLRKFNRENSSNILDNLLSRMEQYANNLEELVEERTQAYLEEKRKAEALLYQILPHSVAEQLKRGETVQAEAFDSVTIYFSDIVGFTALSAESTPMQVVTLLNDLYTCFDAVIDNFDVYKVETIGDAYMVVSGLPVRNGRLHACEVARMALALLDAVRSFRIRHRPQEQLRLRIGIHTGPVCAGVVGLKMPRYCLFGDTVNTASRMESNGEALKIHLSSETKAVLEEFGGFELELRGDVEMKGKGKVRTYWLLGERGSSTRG
protocol-text: cell-based or functional assay
// units = nM; emit number, no label

Below: 4 binders and their reported cGMP conc [nM] at 1 µM FabCys, without ANP.
YY06 (FabCys format) (Fab, V domains shown, Monovalent FabCys) VH: EVQLLESGGGLVQPGGSLRLSCAASGFTFSSYAISWVRQAPGKGLEWVSAISGSGGSTYYAESVKGRFTISRDNSKNTLYLQMNSLRAEDTAVYYCARPYLGDRRSYGFDHWGQGTLVTVSS VL: QSALTQPASVSGSPGQSITISCTGTSSDVGSYNLVSWYQQHPGKAPKLMIYEGSKRPSGVSNRFSGSKSGNTASLTISGLQAEDEADYYCSSYGFHIVVVVFGGGTKLTVL: 20
YY07 (FabCys format) (Fab, V domains shown, Monovalent FabCys) VH: EVQLVQSGAEVKKPGESLKISCKGSGYSFTSYWISWVRQMPGKGLEWMGIIYPGTSYTRYSPSFQGQVTISADKSISTAYLQWSSLKASDTAMYYCARGSLPGLLGFDHWGQGTLVTVSS VL: QSVLTQPPSVSGAPGQRVTISCTGSSSNIGAGYDVHWYQQLPGTAPKLLIYGNSNRPNGVPDRFSGSKSGTSASLAITGLQAEDEADYYCQSYDSPTSSSVFGGGTKLTVL: 77
YY05 (FabCys format) (Fab, V domains shown, Monovalent FabCys) VH: EVQLVQSGAEVKKPGESLKISCKGSGYSFTSYWISWVRQMPGKGLEWMGIIYPGTSYTRYSPSFQGQVTISADKSISTAYLQWSSLKASDTAMYYCARGAVAGQLGFDHWGQGTLVTVSS VL: QSVLTQPPSVSGAPGQRVTISCTGSSSNIGAGYDVHWYQQLPGTAPKLLIYGNSNRPSGVPDRFSGSKSGTSASLAITGLQAEDEADYYCQSYYTSSHGPVFGGGTKLTVL: 207
YY01 (FabCys format) (Fab, V domains shown, Monovalent FabCys) VH: EVQLVESGGGLVQPGGSLRLSCAASGFTFSSYWISWVRQAPGKGLEWVANIKQSGSETYYVESVKGRFTISRDNAKNSLYLQMNSLRAEDTAVYYCARSLRRRSTEHAGFDVWGQGTLVTVSS VL: DIQMTQSPSSLSASVGDRVTITCRASQGISNYLAWYQQKPGKVPKLLIYAASTLQSGVPSRFSGSGSGTDFTLTISSLQPEDVATYYCQQADKFPYTFGQGTKVEIK: 15

--- query ---
Task: Return the recorded cGMP conc [nM] at 1 µM FabCys, without ANP value; entry: YY04 (FabCys format) (Fab, V domains shown, Monovalent FabCys) VH: EVQLVESGGGLVKPGGSLRLSCAASGFTFSNYWISWVRQAPGKGLEWVGRIKSKTYGGTTDYAEPVKGRFTISRDDSKNTLYLQMNSLKTEDTAVYYCAREKYSIRARGHGDYGFDVWGQGTLVTVSS VL: DIQMTQSPSSLSASVGDRVTITCRASQGISNYLAWYQQKPGKVPKLLIYAASTLQSGVPSRFSGSGSGTDFTLTISSLQPEDVATYYCQQGYHAPFTFGQGTKVEIK
Result: 18

Where these numbers come from: patent US20240052042A1
